- assay system: T1, UbcH13 (UBE2N) (human, UniProt P61088 1-152)
- T1 construct: human UbcH13 (UBE2N), E2 ubiquitin-conjugating enzyme; also called UbcH13 E2 enzyme
- T1 sequence: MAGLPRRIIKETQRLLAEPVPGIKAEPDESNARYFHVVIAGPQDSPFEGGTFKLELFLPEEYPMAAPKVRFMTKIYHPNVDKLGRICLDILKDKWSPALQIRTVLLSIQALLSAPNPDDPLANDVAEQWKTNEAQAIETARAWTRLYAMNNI
- assay text: ITC; 1-3 mM E2 in the syringe injected (2 uL, 15-19 injections) into 100-300 uM Arkadia polypeptide in the cell; 25 °C; 50 mM KH2PO4, 50 mM K2HPO4 pH 7; single-site model
- protocol conditions: both partners purified
Below is a list of entries, each paired with its recorded Kd value.
measure: Kd (µM)

>>> reading("Arkadia (RNF111) RING, residues 927-994 (Ark RING, 68 aa) (domain or fragment, human, UniProt Q6ZNA4 927-994, looked up, human Arkadia (RNF111), residues 927-994, 68 aa; also called wt Ark RING; source: expressed and purified as described elsewhere [31]) KQDGEEGTEEDTEEKCTICLSILEEGEDVRRLPCMHLFHQVCVDQWLITNKKCPICRVDIEAQLPSES")
264
>>> reading("Arkadia (RNF111) LONG, residues 876-994 (Ark LONG, 119 aa) (domain or fragment, human, UniProt Q6ZNA4 876-994, looked up, human Arkadia (RNF111), residues 876-994, 119 aa; RING domain with the non-RING elements; also called wt Ark LONG; source: expressed and purified as described elsewhere [31]) FRGNFEELIHLEERLGNVNRGASQGTIERCTYPHKYKKVTTDWFSQRKLHCKQDGEEGTEEDTEEKCTICLSILEEGEDVRRLPCMHLFHQVCVDQWLITNKKCPICRVDIEAQLPSES")
51.9
